# System under test: Human HER3, endogenous, on human cancer cell lines (SK-Br-3, MCF7, BT-474) (human, UniProt P21860 20-1342)
# Sequence (P21860 20-1342): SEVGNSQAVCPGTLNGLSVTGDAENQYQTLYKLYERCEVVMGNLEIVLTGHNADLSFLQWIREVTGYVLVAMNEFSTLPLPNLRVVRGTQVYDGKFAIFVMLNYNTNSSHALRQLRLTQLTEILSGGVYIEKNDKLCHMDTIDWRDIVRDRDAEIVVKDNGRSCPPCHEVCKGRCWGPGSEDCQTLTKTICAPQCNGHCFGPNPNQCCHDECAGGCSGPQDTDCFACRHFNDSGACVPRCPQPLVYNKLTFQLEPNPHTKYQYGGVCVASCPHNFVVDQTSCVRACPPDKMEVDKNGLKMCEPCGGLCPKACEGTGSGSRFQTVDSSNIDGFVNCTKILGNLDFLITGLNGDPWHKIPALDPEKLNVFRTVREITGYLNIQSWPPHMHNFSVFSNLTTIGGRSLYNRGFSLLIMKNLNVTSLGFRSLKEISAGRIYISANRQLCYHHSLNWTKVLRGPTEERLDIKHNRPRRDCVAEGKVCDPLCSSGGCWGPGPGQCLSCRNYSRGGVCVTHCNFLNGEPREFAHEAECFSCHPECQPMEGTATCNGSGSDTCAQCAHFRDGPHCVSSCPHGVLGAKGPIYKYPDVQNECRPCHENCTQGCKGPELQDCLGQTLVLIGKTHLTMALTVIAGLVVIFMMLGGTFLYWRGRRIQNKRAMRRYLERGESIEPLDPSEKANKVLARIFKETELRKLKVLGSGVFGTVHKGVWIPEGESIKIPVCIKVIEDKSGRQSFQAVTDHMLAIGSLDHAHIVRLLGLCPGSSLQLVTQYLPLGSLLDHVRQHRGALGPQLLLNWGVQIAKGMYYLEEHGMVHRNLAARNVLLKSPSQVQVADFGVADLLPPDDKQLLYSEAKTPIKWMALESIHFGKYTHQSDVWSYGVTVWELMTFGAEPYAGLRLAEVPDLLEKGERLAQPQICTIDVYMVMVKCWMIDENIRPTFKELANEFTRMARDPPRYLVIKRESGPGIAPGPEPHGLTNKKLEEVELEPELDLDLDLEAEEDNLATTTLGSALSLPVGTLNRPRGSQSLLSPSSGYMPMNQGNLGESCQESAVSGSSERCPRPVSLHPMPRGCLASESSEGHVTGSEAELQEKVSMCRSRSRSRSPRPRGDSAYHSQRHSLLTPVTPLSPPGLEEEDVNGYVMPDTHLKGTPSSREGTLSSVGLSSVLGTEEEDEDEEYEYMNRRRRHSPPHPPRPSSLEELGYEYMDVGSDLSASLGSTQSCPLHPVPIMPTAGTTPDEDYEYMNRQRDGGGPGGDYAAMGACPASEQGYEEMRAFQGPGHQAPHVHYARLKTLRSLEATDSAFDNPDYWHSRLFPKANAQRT
# Experiment summary: cell-based or functional assay
Attribute: BT-474 pAkt (S473) IC50
Use pM as the unit, but write only the number.

Which BT-474 pAkt (S473) IC50 reading was recorded for the binder MOR12925 (antibody, human IgG1, kappa, V domains shown, tested as IgG) VH: QVQLVQSGAEVKKPGESLKISCKGSGYSFSNYWIAWVRQMPGKGLEWMGIIYPGNSDTIYSPSFQGQVTISADKSISTAYLQWSSLKASDTAMYYCARVHIIQPPSAWSYNAMDVWGQGTLVTVSS VL: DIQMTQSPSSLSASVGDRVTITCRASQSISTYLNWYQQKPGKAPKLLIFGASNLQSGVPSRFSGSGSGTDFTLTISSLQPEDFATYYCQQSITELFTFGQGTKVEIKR ?
255
